Tested on: Moraxella catarrhalis
Assay: Antibacterial activity against Moraxella catarrhalis by broth-microdilution method
Format: functional
Assign MIC to each entry below.
Give the value in µg/mL but do not write µg/mL after it.

Ask: Param readout = MIC; param system = Moraxella catarrhalis; param query = `CC[C@H]1OC(=O)[C@H](C)[C@H]2OC/C(=N\Oc3ccccc3-c3ccccc3)CCO[C@](C)(C[C@@H](C)C(=O)[C@H](C)[C@H]3NC(=O)O[C@@]31C)[C@H](O[C@@H]1O[C@H](C)C[C@H](N(C)C)[C@H]1O)[C@H]2C` ; response: value
Reply: 0.5

Ask: Same lookup for `CC[C@H]1OC(=O)[C@H](C)[C@H]2OC/C(=N\OCCCCCc3ccccc3)CCO[C@](C)(C[C@@H](C)C(=O)[C@H](C)[C@H]3NC(=O)O[C@@]31C)[C@H](O[C@@H]1O[C@H](C)C[C@H](N(C)C)[C@H]1O)[C@H]2C` , please.
Reply: 0.25

Source of measurements: ChEMBL document CHEMBL1141699
